- Test system: NCI-H226 lung
- Experimental Protocol: NCI tumour cell line growth inhibition, 48 h
Readout Label: TGI (µM)
The figure you give is taken to be in µM; do not add the unit.

Some compounds with known TGI results, for comparison:
INSERT INTO assay_data (compound, assay_target, readout_label, assay_result) VALUES
  ('O=C(c1c(F)c(F)c(F)c(F)c1F)n1c(=O)[nH]c2ccccc21', 'NCI-H226 lung', 'TGI', 33.4),
  ('N#Cc1c(Cl)cccc1Oc1ccc(S(=O)(=O)/N=C(\NO)Nc2ccc(Cl)cc2)cc1', 'NCI-H226 lung', 'TGI', 48),
  ('CCOC(=O)c1[nH]c2cccc3c2c1CC(Br)C3=O (stereo not given)', 'NCI-H226 lung', 'TGI', 37.2),
  ('O=C(Nc1cccc(NS(=O)(=O)c2ccc(F)cc2)c1)c1ccc(-c2ccccc2)cc1', 'NCI-H226 lung', 'TGI', 24.3);

Next:
Would you kindly share the measured TGI for Cc1c(C(=O)CCl)c(=O)n(-c2ccccc2)n1C ?
33.2

----------
Quick list: TGI per entry.
- Test system: M14 melanoma
- Experimental Protocol: NCI tumour cell line growth inhibition, 48 h

INSERT INTO results (mol, readout_label, assay_result) VALUES
  ('Brc1nc2c3ccccc3ncn2c1Br', 'TGI', '> 100 µM'),
  ('COc1cccc(-c2nc(-c3ccc(NS(=O)(=O)c4ccccc4)cc3)[nH]c2-c2ccnc(Br)c2)c1', 'TGI', '6.09 µM'),
  ('COc1c2c(c(OC)c3c(=O)cc(C/C(=N/NC(=O)C[n+]4ccccc4)C(=O)Nc4cc(C)ccc4C)oc13)OCO2', 'TGI', '> 100 µM'),
  ('C(=C\c1ccccc1)/Cn1nc(-c2ccccc2)nc1-c1cnccn1', 'TGI', '> 100 µM');

Would you kindly share the measured TGI for CSC1=C(C)S/C(=C\c2ccc(/C=C3\SC(C)=C(SC)S3)cc2)S1 ?
> 100 µM

Would you kindly share the measured TGI for Cc1ccc2c(/C=C/C(=O)c3cc(CN4CCOCC4)c(O)c4nc(C)ccc34)cc(CN3CCOCC3)c(O)c2n1 ?
11.7 µM

Would you kindly share the measured TGI for COC(=O)CC(SCCO)SCCO ?
> 100 µM

Would you kindly share the measured TGI for COc1ccc(-c2cc(-c3ccccc3)c3c(n2)-c2ccccc2NC(=O)C3)cc1 ?
> 100 µM

Would you kindly share the measured TGI for O=[N+]([O-])/C(C(Cl)=C(Cl)Cl)=C(\Nc1cccc2cccnc12)Sc1ccccc1 ?
> 100 µM

Would you kindly share the measured TGI for COc1ccc(-c2nc3sccn3c2/C=C/C(=O)c2cc(OC)c(OC)c(OC)c2)cc1OC ?
9.3 µM

----------
- System: SN12C renal
- Experimental Protocol: NCI tumour cell line growth inhibition, 48 h; in the data active = GI50 below about 0.43 µM; inactive = the rest
// classify into true (1) (active), false (0) (inactive)

These solved cases illustrate the format of a correct answer.
INSERT INTO results (mol, category_label) VALUES
  ('O=C1c2cccnc2-c2nc(-c3ccccn3)cc3c2c1nc1ccccc13', 'true (1)'),
  ('Cn1cc(-c2nc(-c3c[nH]c4ncccc34)cs2)c2cc(Cl)ccc21', 'false (0)'),
  ('COc1ccc(/C=C\c2cc(OC)c(OC)c(OC)c2)cc1NC(=O)[C@@H](N)CO', 'true (1)'),
  ('O=C(CSc1nc2ccc([N+](=O)[O-])cc2[nH]1)Nc1cccc(C(F)(F)F)c1', 'false (0)');

Which outcome was assigned to COc1cccc2c(Nc3ccc(C(=O)NCCNCCO)cc3)cc(-c3ccccc3)nc12 in this test?
false (0)

Which outcome was assigned to O=c1oc2ccccc2c(Cl)c1Cl in this test?
false (0)

Which outcome was assigned to O=C1C(Cl)=C(Oc2ccccc2)C(=O)c2ccccc21 in this test?
false (0)

Which outcome was assigned to Cc1ccc(C)c(-n2c(-c3ccc(Br)cc3)csc2=NC(=O)c2ccccc2F)c1 in this test?
false (0)

Which outcome was assigned to CCOC(=O)c1sc2ncn(Cc3cccc(Cl)c3)c(=O)c2c1C in this test?
false (0)

Which outcome was assigned to CCN(Cc1ccc(F)cc1F)c1ccc(CO)c(Cl)c1 in this test?
false (0)

Which outcome was assigned to Cc1ccc2c(/C=C/C(=O)c3cc(CN4CCOCC4)c(O)c4nc(C)ccc34)cc(CN3CCOCC3)c(O)c2n1 in this test?
false (0)

Which outcome was assigned to O=C(CCl)Nc1ccccc1SCc1cc(Cl)cc2c1OCOC2 in this test?
false (0)
